B1: KCNG1 (parent)
chain: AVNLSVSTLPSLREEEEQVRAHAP

variants of: B1; assay: protein stability index of a GFP-peptide fusion (GPS, HEK-293T) (PSI 1-6); higher = more stable; conditions: c terminus: a fixed tail appended;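 also: lentivirally expressed fusions sorted by FACS into six bins by GFP to DsRed ratio, PSI derived from sequencing read proportions per bin multiplied by bin number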
Recorded protein stability index values for a group of variants are listed next.
Write the value as a bare number.

The cases that follow already have their protein stability index on record.
| mutationKey | recordedResult |
| --- | --- |
| S11D | 5.02 |
| R13A | 5 |
| S7P | 5.09 |
| P24R | 5.08 |
| L9Q | 4.88 |

# variant L4C ; its protein stability index = 4.88

# variant P24K ; its protein stability index = 4.92
